- Test system: Staphylococcus aureus 209P strain
- ASSAY DETAILS: MIC for Staphylococcus aureus 209P strain
- Format: cell-based
- PROTOCOL CONDITIONS: Staphylococcus aureus; 209P strain; regular bouillon medium, 37° C. overnight, turbidity; read-out: MIC Straphyrococcus aureus 209P
MEASUREMENT NAME: log10 MIC (log10 of the value in µg/mL)
Use the decimal logarithm of MIC (µg/mL).

[
  {
    "MOLECULE": "CCCCCCCCCC(O)=C1C(=O)N(C(=O)Nc2ccccc2)c2ccc(F)cc21",
    "NUMERIC VALUE": 2.41
  },
  {
    "MOLECULE": "CCCCCCCCCC(O)=C1C(=O)N(C(=O)Nc2ccccc2C(F)(F)F)c2ccccc21",
    "NUMERIC VALUE": 0.30
  },
  {
    "MOLECULE": "O=C(NCC(=O)c1c(O)c2ccccc2oc1=O)c1ccccc1 [B013, 3-benzoylaminoacetyl-4-hydroxycoumarin]",
    "NUMERIC VALUE": 2.41
  }
]

What the record says about O=C(Nc1ccccc1)N1C(=O)C(=C(O)CCCCCCCCCBr)c2ccccc21 : log10 MIC is 2.41

According to the records, this molecule CCCCCCCCCC(=O)c1c(O)c2cc(C)ccc2oc1=O [B012, 3-decanoyl-6-methyl-4-hydroxycoumarin] displays log10 MIC of -0.30

Looking up CCCCCCCCCCOCC(O)=C1C(=O)N(C(=O)Nc2ccccc2)c2ccc(Br)cc21 , I see its log10 MIC listed as 1.81

According to the records, this molecule CCCCCCCCCC(=O)N1C(=O)C(=C(O)c2ccc(OC)cc2)c2ccccc21 displays log10 MIC of 2.11

Please fill in: log10 MIC reported for CCCCCCCCCC(O)=C1C(=O)N(C(C)=O)c2ccc(Br)cc21 = 0.60

GET /value?item= CCCCc1ccc(COCC(=O)c2c(O)c3ccccc3oc2=O)cc1 &field=log10 MIC returns 0.60
